Molecular target: Sut1 (UniProt P53032)
Sequence: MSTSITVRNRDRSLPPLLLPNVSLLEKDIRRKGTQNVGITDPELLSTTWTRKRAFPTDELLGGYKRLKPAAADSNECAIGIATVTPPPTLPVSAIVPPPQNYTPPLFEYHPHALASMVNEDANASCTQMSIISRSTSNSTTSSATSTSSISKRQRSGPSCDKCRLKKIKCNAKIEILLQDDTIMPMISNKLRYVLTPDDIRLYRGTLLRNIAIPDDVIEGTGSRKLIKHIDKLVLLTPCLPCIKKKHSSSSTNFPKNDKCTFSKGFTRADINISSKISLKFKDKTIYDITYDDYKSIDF
Assay: PBM E-score (8-mer binding enrichment) (E-score (-0.5 to 0.5)); higher = stronger / more preferred TF binding
Conditions: protein concentration: 200 nM; construct: GST-full length
In all, about 33,000 sequences were measured (“E-score (-0.5 to 0.5)”: median about -0.017, highest 2% from about 0.3 on). Many of the other results were omitted from the sample, so the highest values are more common in it than they were.
quantity kind: PBM E-score
Lab note: record the figure alone, no unit after it.

Field: example entries. Status: answers known.
{"columns": ["polymer sequence", "data value"],
 "data": [
  ["TCCGAACA", 0.399],
  ["CCCGAAAA", 0.177],
  ["CGGAATTC", 0.323],
  ["GATTGAAC", 0.00278],
  ["GGGCGAAA", 0.0444],
  ["ATCCGCGC", -0.0272],
  ["CGCCAAAG", -0.237],
  ["GCGTTACC", -0.158]
]}

[Q] Please look at `GCTGAAGA` and tell me its recorded PBM E-score on Sut1 (UniProt P53032).
[A] -0.00656

[Q] Please look at `TCCGAAAA` and tell me its recorded PBM E-score on Sut1 (UniProt P53032).
[A] 0.353
